These measurements were taken from ChEMBL document CHEMBL3991601.

molecular target: Tyrosine-protein kinase ABL2 (Homo sapiens); further: in the data inactive means no Kd found up to 30 µM
Sequence (P42684 whole entry): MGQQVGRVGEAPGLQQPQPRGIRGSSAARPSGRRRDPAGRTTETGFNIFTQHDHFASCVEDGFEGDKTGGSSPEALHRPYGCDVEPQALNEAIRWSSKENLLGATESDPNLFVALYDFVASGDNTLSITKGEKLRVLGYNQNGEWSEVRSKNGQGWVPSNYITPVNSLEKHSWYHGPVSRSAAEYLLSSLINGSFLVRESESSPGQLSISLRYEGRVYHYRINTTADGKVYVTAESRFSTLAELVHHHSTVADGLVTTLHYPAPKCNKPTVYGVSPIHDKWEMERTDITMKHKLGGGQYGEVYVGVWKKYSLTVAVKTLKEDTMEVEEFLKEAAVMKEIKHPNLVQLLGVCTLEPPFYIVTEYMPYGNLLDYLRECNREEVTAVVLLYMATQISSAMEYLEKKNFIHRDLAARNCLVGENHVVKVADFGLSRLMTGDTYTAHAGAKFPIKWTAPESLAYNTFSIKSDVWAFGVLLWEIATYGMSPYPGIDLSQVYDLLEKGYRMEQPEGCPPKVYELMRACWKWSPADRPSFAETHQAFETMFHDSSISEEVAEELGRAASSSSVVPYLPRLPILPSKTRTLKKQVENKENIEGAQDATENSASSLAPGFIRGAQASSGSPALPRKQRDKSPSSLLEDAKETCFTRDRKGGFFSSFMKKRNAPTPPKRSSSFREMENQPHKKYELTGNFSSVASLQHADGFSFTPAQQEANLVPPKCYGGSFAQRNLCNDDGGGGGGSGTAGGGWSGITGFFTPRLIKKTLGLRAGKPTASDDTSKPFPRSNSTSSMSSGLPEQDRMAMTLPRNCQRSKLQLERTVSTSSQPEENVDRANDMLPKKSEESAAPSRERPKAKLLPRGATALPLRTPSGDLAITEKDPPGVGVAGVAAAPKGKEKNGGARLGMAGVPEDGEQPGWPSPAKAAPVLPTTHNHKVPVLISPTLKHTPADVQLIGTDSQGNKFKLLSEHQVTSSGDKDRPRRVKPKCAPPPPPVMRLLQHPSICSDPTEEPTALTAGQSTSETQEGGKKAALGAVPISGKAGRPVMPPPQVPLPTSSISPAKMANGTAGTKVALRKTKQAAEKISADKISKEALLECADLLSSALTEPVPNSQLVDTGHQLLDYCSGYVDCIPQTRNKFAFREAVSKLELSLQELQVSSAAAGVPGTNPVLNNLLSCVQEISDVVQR
The source made the active and inactive calls.
Labels: t (active), f (inactive)

{"compound": "Cc1[nH]c(/C=C2\\C(=O)Nc3ccccc32)c(C)c1CCC(=O)O [ORANTINIB]", "test system": "Tyrosine-protein kinase ABL2 (Homo sapiens)", "category label": "f"}
{"compound": "C[C@@H](Oc1cc(C(=O)Nc2ccc(C(=O)N3CCN(C)CC3)cc2)nnc1N)c1c(Cl)ccc(F)c1Cl", "test system": "Tyrosine-protein kinase ABL2 (Homo sapiens)", "category label": "f"}
{"compound": "CCCCCCCCCCCCCCCCCCOP(=O)([O-])OC1CC[N+](C)(C)CC1 [PERIFOSINE]", "test system": "Tyrosine-protein kinase ABL2 (Homo sapiens)", "category label": "f"}
{"compound": "COCc1c(-c2ccc(NC(=O)Nc3cc(C(F)(F)F)ccc3F)c(F)c2)c2c(N)ncnn2c1CN1CCOCC1", "test system": "Tyrosine-protein kinase ABL2 (Homo sapiens)", "category label": "f"}
{"compound": "C[C@@H](NC(=O)c1ncnc(N)c1Cl)c1ncc(C(=O)Nc2cc(C(F)(F)F)c(Cl)cn2)s1 [TOVORAFENIB]", "test system": "Tyrosine-protein kinase ABL2 (Homo sapiens)", "category label": "t"}
{"compound": "Cc1nc(Nc2n[nH]c3c2CN(C(=O)N[C@H](CN(C)C)c2ccccc2)C3(C)C)c2sccc2n1 [PF-03758309]", "test system": "Tyrosine-protein kinase ABL2 (Homo sapiens)", "category label": "t"}
{"compound": "CCNC(=O)C#Cc1ccc2c(c1)NC(=O)/C2=C(\\Nc1ccc(CN(C)C)cc1)c1ccccc1", "test system": "Tyrosine-protein kinase ABL2 (Homo sapiens)", "category label": "t"}

###

molecular target: Serine/threonine-protein kinase 3 (Homo sapiens, UniProt Q13188); further: in the data inactive means no Kd found up to 30 µM
Sequence (Q13188 whole entry): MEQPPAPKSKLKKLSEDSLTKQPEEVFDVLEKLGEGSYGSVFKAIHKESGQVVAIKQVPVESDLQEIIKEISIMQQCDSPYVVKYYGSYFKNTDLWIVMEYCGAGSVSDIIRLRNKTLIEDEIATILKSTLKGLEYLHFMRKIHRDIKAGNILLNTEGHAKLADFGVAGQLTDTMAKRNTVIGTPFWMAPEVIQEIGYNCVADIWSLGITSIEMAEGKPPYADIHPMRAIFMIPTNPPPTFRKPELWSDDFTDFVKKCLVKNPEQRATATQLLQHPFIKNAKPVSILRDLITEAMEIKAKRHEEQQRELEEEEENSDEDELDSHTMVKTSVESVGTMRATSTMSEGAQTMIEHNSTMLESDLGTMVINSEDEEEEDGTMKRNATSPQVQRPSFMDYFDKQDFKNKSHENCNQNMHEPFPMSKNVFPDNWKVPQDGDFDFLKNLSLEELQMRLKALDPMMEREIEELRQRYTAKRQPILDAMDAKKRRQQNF
Active and inactive are the calls of the source.
Labels: active, inactive

{"compound": "CN(C[C@@H]1COCCO1)S(=O)(=O)Nc1ccc2ccc3ncc(-c4cnn(C)c4)cc3c(=O)c2c1 [MK-2461]", "category label": "inactive"}
{"compound": "Cc1cc(C(=O)NOCCO)c(Nc2ccc(I)cc2F)n(C)c1=O [AZD-8330]", "category label": "inactive"}
{"compound": "CCCCCCCCCCCCCCCCCCOP(=O)([O-])OC1CC[N+](C)(C)CC1 [PERIFOSINE]", "category label": "inactive"}
{"compound": "CN1C/C=C/CCOc2cccc(c2)-c2ccnc(n2)Nc2cccc(c2)C1 [ZOTIRACICLIB]", "category label": "active"}
{"compound": "COc1c(OCCCN2CCOCC2)ccc2c1N=C(NC(=O)c1cnc(N)nc1)N1CCN=C21 [COPANLISIB]", "category label": "inactive"}
{"compound": "Cc1cc(Nc2ncc(Cl)c(Nc3ccccc3S(=O)(=O)C(C)C)n2)c(OC(C)C)cc1C1CCNCC1 [CERITINIB]", "category label": "inactive"}
{"compound": "Nc1ncnc2c1c(-c1cccc(OCc3ccccc3)c1)cn2[C@H]1C[C@@H](CN2CCC2)C1 [AEW-541]", "category label": "inactive"}

###

target: Cyclin-dependent kinase 2 (Homo sapiens); further: in the data inactive means no Kd found up to 30 µM
Calls of active or inactive are those of the source.
Labels: YES = active, NO = inactive

{"compound": "C[C@@H](Oc1cc(C(=O)Nc2ccc(C(=O)N3CCN(C)CC3)cc2)nnc1N)c1c(Cl)ccc(F)c1Cl", "category label": "NO"}
{"compound": "COc1cc2c(Nc3ccc(Cl)c(Cl)c3F)ncnc2cc1OC[C@@H]1C[C@@H]2CN(C)C[C@@H]2C1", "category label": "NO"}
{"compound": "CO[C@H]1C[C@@H]2CC[C@@H](C)[C@@](O)(O2)C(=O)C(=O)N2CCCC[C@H]2C(=O)O[C@H]([C@H](C)C[C@@H]2CC[C@@H](OP(C)(C)=O)[C@H](OC)C2)CC(=O)[C@H](C)/C=C(\\C)[C@@H](O)[C@@H](OC)C(=O)[C@H](C)C[C@H](C)/C=C/C=C/C=C/1C", "category label": "NO"}
{"compound": "COc1cc2ncnc(Oc3cccc(NC(=O)Nc4cc(C(C)(C)C(F)(F)F)on4)c3)c2cc1OC", "category label": "NO"}
{"compound": "C#Cc1cccc(Nc2ncnc3cc(OC)c(OCCCCCCC(=O)NO)cc23)c1", "category label": "NO"}
{"compound": "COc1c(OCCCN2CCOCC2)ccc2c1N=C(NC(=O)c1cnc(N)nc1)N1CCN=C21", "category label": "NO"}
{"compound": "Cc1nc2cc(-c3nn(C(C)C)c4ncnc(N)c34)ccc2o1", "category label": "NO"}
{"compound": "Cn1cnc2c(F)c(Nc3ccc(Br)cc3F)c(C(=O)NOCCO)cc21", "category label": "NO"}
{"compound": "COc1ncc(-c2ccc3nccc(-c4ccnnc4)c3c2)cc1NS(=O)(=O)c1ccc(F)cc1F", "category label": "NO"}
{"compound": "O=c1[nH]ccc2cc(OC3CCNCC3)ccc12 [SAR-407899 FREE BASE]", "category label": "NO"}
{"compound": "CCn1c(C(=O)N(C2CC2)C2CC2)cc2c3c(ncn3C)c(Nc3cc(C)n(C)n3)nc21", "category label": "NO"}
{"compound": "Cn1cc(-c2cnc3ccc4ccc(CS(=O)(=O)NCc5ccccn5)cc4c(=O)c3c2)cn1", "category label": "NO"}
{"compound": "CNC(=O)c1nn(C)c2c1C(C)(C)Cc1cnc(Nc3ccc(N4CCN(C)CC4)cc3)nc1-2", "category label": "YES"}
{"compound": "NC1(c2ccc(-c3nc4ccn5c(=O)[nH]nc5c4cc3-c3ccccc3)cc2)CCC1", "category label": "NO"}
{"compound": "CNC(=O)c1cc(Oc2ccc(NC(=O)Nc3cc(C(C)(C)C)nn3-c3ccc4ncccc4c3)c(F)c2)ccn1", "category label": "YES"}
{"compound": "CO[C@H]1C[C@@H]2CC[C@@H](C)[C@@](O)(O2)C(=O)C(=O)N2CCCC[C@H]2C(=O)O[C@H]([C@H](C)C[C@@H]2CC[C@@H](O)[C@H](OC)C2)CC(=O)[C@H](C)/C=C(\\C)[C@@H](O)[C@@H](OC)C(=O)[C@H](C)C[C@H](C)/C=C/C=C/C=C/1C", "category label": "NO"}
{"compound": "Cn1cc(-c2cnn3c(N)c(Br)c([C@@H]4CCCNC4)nc23)cn1", "category label": "NO"}
{"compound": "CCn1cc(-c2ccnc3[nH]c(-c4cccc(CN(C)C)c4)cc23)c(-c2ccc(NC(=O)N(C)C)cc2)n1", "category label": "NO"}
{"compound": "CCOc1cc2ncc(C#N)c(Nc3ccc(F)c(Cl)c3)c2cc1NC(=O)/C=C/CN(C)C", "category label": "NO"}
{"compound": "Cc1cccc(-c2nn3c(c2-c2ccnc4ccc(C(N)=O)cc24)CCC3)n1", "category label": "NO"}
{"compound": "Nc1ncnc2c1c(-c1cccc(OCc3ccccc3)c1)cn2[C@H]1C[C@@H](CN2CCC2)C1", "category label": "NO"}
{"compound": "O=C(Nc1nc2cccc(-c3ccc(CN4CCS(=O)(=O)CC4)cc3)n2n1)C1CC1", "category label": "NO"}
{"compound": "CC(C)c1cc(CNc2nc(Nc3cc(C4CC4)[nH]n3)cc(N3CCN(C)CC3)n2)on1", "category label": "NO"}
{"compound": "C=CC(=O)Nc1cc2c(Nc3ccc(F)c(Cl)c3)ncnc2cc1C#CC(C)(C)N1CCN(C)CC1 [AV-412 FREE BASE]", "category label": "NO"}
{"compound": "FC(F)(F)c1ccc(/C=C/c2nc(COc3ccc(CCCCn4ccnn4)cc3)co2)cc1", "category label": "NO"}
{"compound": "CC(=O)c1cnc2ccc(-c3cc(Cl)c(O)c(Cl)c3)nc2c1N[C@H]1CC[C@H](CN(C)C)CC1", "category label": "YES"}

###

biological target: Mitogen-activated protein kinase kinase kinase kinase 4 (Homo sapiens, UniProt O95819); further: in the data inactive means no Kd found up to 30 µM
Sequence (O95819 whole entry): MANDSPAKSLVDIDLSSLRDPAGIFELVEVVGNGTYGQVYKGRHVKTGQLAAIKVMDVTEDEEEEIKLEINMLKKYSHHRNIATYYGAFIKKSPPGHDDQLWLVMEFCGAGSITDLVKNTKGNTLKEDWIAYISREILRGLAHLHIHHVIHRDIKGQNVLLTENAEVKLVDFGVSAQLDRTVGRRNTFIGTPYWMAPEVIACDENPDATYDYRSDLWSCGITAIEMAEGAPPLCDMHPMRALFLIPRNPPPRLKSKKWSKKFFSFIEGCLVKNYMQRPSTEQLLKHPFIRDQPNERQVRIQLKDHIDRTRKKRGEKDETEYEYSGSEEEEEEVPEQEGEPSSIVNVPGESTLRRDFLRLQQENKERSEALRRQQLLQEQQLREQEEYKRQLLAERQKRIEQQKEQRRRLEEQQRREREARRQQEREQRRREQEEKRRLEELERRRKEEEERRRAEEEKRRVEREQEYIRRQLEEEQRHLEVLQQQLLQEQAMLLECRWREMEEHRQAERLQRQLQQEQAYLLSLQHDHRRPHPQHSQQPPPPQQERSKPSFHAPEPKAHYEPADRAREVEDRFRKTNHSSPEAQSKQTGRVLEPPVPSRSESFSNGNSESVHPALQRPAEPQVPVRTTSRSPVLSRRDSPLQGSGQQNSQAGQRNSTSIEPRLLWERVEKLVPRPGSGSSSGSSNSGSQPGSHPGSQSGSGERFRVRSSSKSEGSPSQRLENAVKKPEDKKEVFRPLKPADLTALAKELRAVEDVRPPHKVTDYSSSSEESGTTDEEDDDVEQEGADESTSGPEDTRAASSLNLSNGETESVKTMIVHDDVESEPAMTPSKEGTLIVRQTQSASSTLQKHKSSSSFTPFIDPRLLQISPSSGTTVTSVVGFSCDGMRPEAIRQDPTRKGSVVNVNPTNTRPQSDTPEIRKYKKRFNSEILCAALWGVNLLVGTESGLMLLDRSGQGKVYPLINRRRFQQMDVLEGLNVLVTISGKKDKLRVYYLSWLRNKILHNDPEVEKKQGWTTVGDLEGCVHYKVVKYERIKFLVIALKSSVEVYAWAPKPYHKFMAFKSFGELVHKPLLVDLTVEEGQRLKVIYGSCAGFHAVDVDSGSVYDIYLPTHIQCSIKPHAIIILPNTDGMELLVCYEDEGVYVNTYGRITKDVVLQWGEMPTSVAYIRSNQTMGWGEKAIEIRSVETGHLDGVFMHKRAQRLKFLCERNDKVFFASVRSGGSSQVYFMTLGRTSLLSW
Calls of active or inactive are those of the source.
Labels: 1 = active, 0 = inactive

{"compound": "O=C(Nc1nc2cccc(-c3ccc(CN4CCS(=O)(=O)CC4)cc3)n2n1)C1CC1", "category label": 0}
{"compound": "Cc1cccc(-c2nn3c(c2-c2ccnc4ccc(C(N)=O)cc24)CCC3)n1", "category label": 1}
{"compound": "COc1cc2ncnc(Oc3cccc(NC(=O)Nc4cc(C(C)(C)C(F)(F)F)on4)c3)c2cc1OC", "category label": 0}
{"compound": "CCCCCCCCCCCCCCCCCCOP(=O)([O-])OC1CC[N+](C)(C)CC1", "category label": 0}
{"compound": "C=CC(=O)Nc1cc2c(Nc3ccc(F)c(Cl)c3)ncnc2cc1C#CC(C)(C)N1CCN(C)CC1 [AV-412 FREE BASE]", "category label": 0}
{"compound": "Cn1cnc2c(F)c(Nc3ccc(Br)cc3F)c(C(=O)NOCCO)cc21", "category label": 0}
